- Experimental Target: Cytochrome P450 2C19 (Homo sapiens)
- Measurement Description: Cytochrome P450 Family 2 Subfamily C Member 19 (CYP2C19) small molecule antagonists: luciferase reporter qHTS assay (AID 1671197); note: nearly all actives have a fitted effect of over 65% in size
- Conditions: P450-Glo CYP2C19 enzyme, luciferin luminescence, 1 h; series mostly up to 115 µM
Results filed as inconclusive are left out. Active and inactive are the calls of the source. Calls come from the whole dose curve; as a rule, active = well fitted inhibition curve with a large enough effect in the repeat runs; inconclusive = weak or mixed curves; inactive = no such curve, though single readings can be large or run the other way.
Please answer using one outcome listed in y = active, n = inactive

Compound | Assigned Category
CC(O)(P(=O)(O)O)P(=O)(O)O | n
Nc1ccc([N+](=O)[O-])cc1O | y
CN1CCC[C@H]1c1cccnc1 | n

Entry CCCCCCCC(=O)OCC(COC(=O)CCCCCCC)OC(=O)CCCCCCC : call = ?
n

Then what about the compound Nc1c(N=Nc2ccc(-c3ccc(N=Nc4cc(S(=O)(=O)O)c5ccccc5c4N)cc3)cc2)cc(S(=O)(=O)O)c2ccccc12 ?
y

Then what about the compound Cc1cc(=O)oc2cc(O)ccc12 ?
n

Then what about the compound CC12CCC(CC1)C(C)(C)O2 ?
n

Then what about the compound Cc1ncc([N+](=O)[O-])n1C ?
n

Then what about the compound Nc1ccc(O)c([N+](=O)[O-])c1 ?
y

====

- Measurement Description: qHTS assay to identify small molecule antagonists of the sonic hedgehog signaling (Shh) pathway - cell viability counter screen (AID 1259367); note: nearly all actives have a fitted effect of over 55% in size
- Conditions: NIH/3T3 Gli1-Luc viability, CellTiter-Fluor, 24 h; series mostly up to 92.4 µM
Inconclusive results are not listed. Activity calls are given as the source filed them. Calls come from the whole dose curve; as a rule, active = well fitted cell-killing curve with a large enough effect in the repeat runs; inconclusive = weak or mixed curves, or effect the other way; inactive = no such curve, though single readings can be large or run the other way.
Please answer using one outcome listed in active, inactive

Record excerpt, results attached:
Chemical Structure | Assigned Category
CN(N=O)C(=O)N[C@@H]1[C@@H](O)[C@H](O)[C@@H](CO)O[C@@H]1O | inactive
O=C1NC(=O)C(c2ccccc2)(c2ccccc2)N1 | inactive
O=C(O)c1ccccc1 | inactive

Entry COc1ccc(CN(CCN(C)C)c2ccccn2)cc1 : call = ?
inactive

Then what about the molecule NC(=O)c1cccnc1 ?
inactive

Then what about the molecule CC(C)c1c(C(=O)Nc2ccccc2)c(-c2ccccc2)c(-c2ccc(F)cc2)n1CC[C@@H](O)C[C@@H](O)CC(=O)O ?
inactive

Then what about the molecule O=c1[nH]cc(F)c(=O)[nH]1 ?
inactive

Then what about the molecule CN(C)CCOC(c1ccccc1)c1ccccc1 ?
inactive

====

- Measurement Description: qHTS assay to identify small molecule antagonists of the estrogen receptor alpha (ER-alpha) signaling pathway using the BG1 cell line (AID 743080);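 note: BG1 cells stimulated with 17beta-estradiol alongside compound; nearly all actives have a fitted effect of over 25% in size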
- Conditions: BG1Luc4E2 ERE-luciferase antagonist mode, luminescence
Results filed as inconclusive are left out. Activity calls are given as the source filed them. Calls follow the shape of the full dose curve.
Please answer using one outcome listed in YES (active), NO (inactive)

Record excerpt, results attached:
Chemical Structure | Assigned Category
C=CCc1ccc(O)c(OC)c1 | NO
CN(N=O)C(=O)N[C@@H]1[C@@H](O)[C@H](O)[C@@H](CO)O[C@@H]1O | NO
CCc1nc(N)nc(N)c1-c1ccc(Cl)cc1 | YES
CCCCCCCC(=O)OCC(COC(=O)CCCCCCC)OC(=O)CCCCCCC | NO
CCOC(N)=O | NO
CS(=O)(=O)OCCCCOS(C)(=O)=O | NO
Cc1cccc(C)c1 | NO
Cc1ncc([N+](=O)[O-])n1CCO | NO

Entry CCCc1cc(=O)[nH]c(=S)[nH]1 : call = ?
NO

Then what about the molecule CCCCC1(COC(=O)CCC(=O)O)C(=O)N(c2ccccc2)N(c2ccccc2)C1=O ?
NO

Then what about the molecule O=C(O)c1ccccc1 ?
NO

====

- Measurement Description: A CellTox Green Cytotoxicity Assay to monitor cytotoxicity in HepG2 cells - 40 hour (AID 1224879); note: nearly all actives have a fitted effect of over 40% in size
- Conditions: CellTox Green fluorescence; series mostly up to 76.8 µM
Records with an inconclusive call do not appear. Active and inactive are the calls of the source. The call rests on the fitted dose curve; in most records, active means well fitted activation curve with a large enough effect in the repeat runs; inconclusive means weak or mixed curves; inactive means flat fitted curve, though single readings scatter.
Please answer using one outcome listed in active, inactive

Entry CC(O)(P(=O)(O)O)P(=O)(O)O : call = ?
inactive

Then what about the compound COc1ccc(OC(F)(F)F)cc1CN[C@H]1CCCN[C@H]1c1ccccc1 ?
active

Then what about the compound CCCc1cc(=O)[nH]c(=S)[nH]1 ?
inactive

Then what about the compound COc1cccc(O)c1O ?
inactive

Then what about the compound CCN(CC)C(=O)c1cccc(C)c1 ?
inactive

Then what about the compound CCCC[P+](CCCC)(CCCC)CCCC ?
inactive

Then what about the compound CCCCOC(=O)c1ccc(O)cc1 ?
inactive

====

- Experimental Target: Cytochrome P450 3A4 (Homo sapiens) (UniProt P08684)
- Sequence (P08684 whole entry, looked up): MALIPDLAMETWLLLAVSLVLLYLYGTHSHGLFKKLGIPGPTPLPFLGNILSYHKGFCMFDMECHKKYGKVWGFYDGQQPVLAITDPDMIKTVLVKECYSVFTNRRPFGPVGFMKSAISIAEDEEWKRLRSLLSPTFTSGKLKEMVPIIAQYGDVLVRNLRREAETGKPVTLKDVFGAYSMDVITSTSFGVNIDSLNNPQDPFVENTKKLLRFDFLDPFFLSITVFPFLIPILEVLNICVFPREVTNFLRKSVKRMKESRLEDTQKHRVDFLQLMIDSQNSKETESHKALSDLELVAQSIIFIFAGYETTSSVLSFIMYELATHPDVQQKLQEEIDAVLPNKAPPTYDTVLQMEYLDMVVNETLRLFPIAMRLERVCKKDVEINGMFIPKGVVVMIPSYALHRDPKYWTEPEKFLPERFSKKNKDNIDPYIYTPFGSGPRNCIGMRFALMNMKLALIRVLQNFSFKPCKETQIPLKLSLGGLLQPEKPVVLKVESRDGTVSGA
- Measurement Description: Cytochrome P450 Family 3 Subfamily A Member 4 (CYP3A4) small molecule antagonists: luciferase reporter qHTS assay (AID 1671201); note: nearly all actives have a fitted effect of over 50% in size
- Conditions: P450-Glo CYP3A4 enzyme, luciferin luminescence, 1 h; series mostly up to 115 µM
Records with an inconclusive call do not appear. The source made the active and inactive calls. Calls follow the shape of the dose curve; as a rule, active = well fitted inhibition curve with a large enough effect in the repeat runs; inconclusive = weak or mixed curves; inactive = no such curve, though single readings can be large or run the other way.
Please answer using one outcome listed in active, inactive

Compound | Experimental Target | Assigned Category
CC(=O)Nc1c(I)c(NC(C)=O)c(I)c(C(=O)O)c1I | Cytochrome P450 3A4 (Homo sapiens) (UniProt P08684) | inactive
O=C1OC2(c3ccccc31)c1cc(Br)c(O)c(Br)c1Oc1c2cc(Br)c(O)c1Br | Cytochrome P450 3A4 (Homo sapiens) (UniProt P08684) | inactive
COc1ccc2cc(S(=O)(=O)N[C@H](CC(=O)N[C@H](Cc3ccc(CN4[C@H](C)CCC[C@@H]4C)cc3)C(=O)N(C)C(C)C)c3ccc4c(c3)OCO4)ccc2c1 | Cytochrome P450 3A4 (Homo sapiens) (UniProt P08684) | active
O=C1c2c(O)cccc2Cc2cccc(O)c21 | Cytochrome P450 3A4 (Homo sapiens) (UniProt P08684) | inactive
COc1ccc(CN(CCN(C)C)c2ccccn2)cc1 | Cytochrome P450 3A4 (Homo sapiens) (UniProt P08684) | inactive

Entry COc1ccc2c(c1)c(CC(=O)O)c(C)n2C(=O)c1ccc(Cl)cc1 : call = ?
inactive

Then what about the compound CCCc1cc(=O)[nH]c(=S)[nH]1 ?
inactive

Then what about the compound O=S1(=O)OC(c2ccc(O)cc2)(c2ccc(O)cc2)c2ccccc21 ?
inactive

Then what about the compound CS(=O)(=O)OCCCCOS(C)(=O)=O ?
inactive

Then what about the compound C1=CC2C3C=CC(C3)C2C1 (centres undefined) ?
inactive

Then what about the compound NC(=O)c1cccnc1 ?
inactive

Then what about the compound NC(CO)(CO)CO ?
inactive

Then what about the compound C=CCc1ccc(O)c(OC)c1 ?
inactive

Then what about the compound C=C(C)C(=O)OCC(C)O (centres undefined) ?
inactive

Then what about the compound CCCCOC(=O)c1ccc(O)cc1 ?
inactive

Then what about the compound Cc1cc(C)nc(NS(=O)(=O)c2ccc(N)cc2)n1 ?
inactive

====

- Measurement Description: qHTS assay to identify small molecule antagonists of the constitutive androstane receptor (CAR) signaling pathway - cell viability counter screen (AID 1224837); note: nearly all actives have a fitted effect of over 45% in size
- Conditions: HepG2-CYP2B6-hCAR viability, CellTiter-Fluor, 23 h, co-treated with 50 nM CITCO; series mostly up to 92.4 µM
Results filed as inconclusive are left out. Active and inactive are the calls of the source. Calls come from the whole dose curve; as a rule, active = well fitted cell-killing curve with a large enough effect in the repeat runs; inconclusive = weak or mixed curves, or effect the other way; inactive = flat fitted curve, though single readings scatter.
Please answer using one outcome listed in Yes (active), No (inactive)

Compound | Assigned Category
Oc1ccccc1 | No
C=CCc1ccc(O)c(OC)c1 | No

# input for lookup
Entry CN1CCC[C@H]1c1cccnc1 : call = ?
No

====

- Measurement Description: qHTS assay to test for compound auto fluorescence at 460 nm (blue) in HEK293 cells (AID 720678)
- Conditions: blue autofluorescence 405/460 nm; series mostly up to 91.3 µM
The source made the active and inactive calls. Calls come from the whole dose curve; as a rule, active = well fitted curve in the direction sought with a large enough effect in the repeat runs; inconclusive = weak or mixed curves; inactive = flat fitted curve, though single readings scatter.
Measured Parameter: outcome

Compound | outcome
COc1ccc(CN(CCN(C)C)c2ccccn2)cc1 | inactive
Cc1cn([C@H]2C=C[C@@H](CO)O2)c(=O)[nH]c1=O | inactive
CCN(CC)C(=O)c1cccc(C)c1 | inactive
OC[C@H]1O[C@H](O[C@]2(CCl)O[C@H](CCl)[C@@H](O)[C@@H]2O)[C@H](O)[C@@H](O)[C@H]1Cl | inactive
COc1ccc2c(c1)c(CC(=O)O)c(C)n2C(=O)c1ccc(Cl)cc1 | inactive

I'd like to know its outcome. The compound in question is O=C1O[C@H]([C@@H](O)CO)C(O)=C1O
inactive

Then what about the compound O=c1[nH]cc(F)c(=O)[nH]1 ?
inactive

Then what about the compound Nc1ccc(O)c([N+](=O)[O-])c1 ?
inactive

Then what about the compound Cc1ncc([N+](=O)[O-])n1C ?
inactive

Then what about the compound COc1ccc(OC(F)(F)F)cc1CN[C@H]1CCCN[C@H]1c1ccccc1 ?
inactive

Then what about the compound O=C1NS(=O)(=O)c2ccccc21 ?
inactive

Then what about the compound CC(C)NCC(O)c1ccc(O)c(O)c1 (stereo unspecified) ?
inactive

====

- Measurement Description: qHTS RealTime-Glo MT Cell Viability Assay in HEK293 cells - 32 hour (AID 1224868); note: nearly all actives have a fitted effect of over 50% in size
- Conditions: RealTime-Glo luminescence; series mostly up to 76.8 µM
Results filed as inconclusive are left out. Active and inactive are the calls of the source. Calls come from the whole dose curve; as a rule, active = well fitted cell-killing curve with a large enough effect in the repeat runs; inconclusive = weak or mixed curves, or effect the other way; inactive = flat fitted curve, though single readings scatter.
Please answer using one outcome listed in active, inactive

Molecule | Assigned Category
C=C1CC[C@H](O)C/C1=C\C=C1/CCC[C@]2(C)[C@@H]([C@H](C)CCCC(C)C)CC[C@@H]12 | active
F[B-](F)(F)F | inactive
CCOC(N)=O | inactive
CS(=O)(=O)OCCCCOS(C)(=O)=O | inactive
CN[C@H]1CC[C@@H](c2ccc(Cl)c(Cl)c2)c2ccccc21 | active
O=C(O)CC(O)C(=O)O (centres undefined) | inactive

Entry Cc1ccc(S(=O)(=O)O)cc1 : call = ?
inactive

Then what about the molecule Cc1cccc(C)c1 ?
inactive

Then what about the molecule O=C(O)c1ccccc1 ?
inactive

Then what about the molecule C[C@](N)(Cc1ccc(O)c(O)c1)C(=O)O ?
inactive

Then what about the molecule CN(C)CCOC(C)(c1ccccc1)c1ccccn1 (centres undefined) ?
inactive

Hey, just so you know, these numbers are from PubChem BioAssay (Tox21).
